Listed below: protein stability index values for each entry.
Tested on: Saccharomyces cerevisiae
run_description: protein stability index of tFT-peptide fusion (C-terminal peptide) (PSI (0-1 scale)); higher = more stable (slower turnover)
experimental_parameters: genetic background: wild type; temperature: 30 C
API note: the answer field is a bare number with no unit suffix.

Please review the entries below; each comes with its answer.
Asked: Data request, read-out protein stability index, for `SRRSTIRCSTSC`
Given back: 0.717

Asked: Proceed to `TVFPVLTTVEGL`
Given back: 0.688

Asked: Proceed to `KIMIGQPDGINV`
Given back: 0.65

Asked: Proceed to `TLGLTLSAFALT`
Given back: 0.635

More entries:
Asked: Data request, read-out protein stability index, for `GFSGLRGFWSGM`
Given back: 0.713

Asked: Proceed to `PTARIPGLYLFP`
Given back: 0.695

Asked: Proceed to `ERFRLYFRPGIF`
Given back: 0.234

Asked: Proceed to `PPPTLPPPPPAL`
Given back: 0.711

Asked: Proceed to `VCSEARRKSVAL`
Given back: 0.673

Asked: Proceed to `PPPPPQSRASSP`
Given back: 0.738

Asked: Proceed to `AFRGRGAFKYCL`
Given back: 0.683

Asked: Proceed to `LLLPSAPFLFLL`
Given back: 0.295

Asked: Proceed to `PSHLNAPTTAPP`
Given back: 0.701

Asked: Proceed to `GGYATYWVGVRL`
Given back: 0.697

---

Listed below: protein stability index values for each entry.
Tested on: Saccharomyces cerevisiae
run_description: protein stability index of tFT-peptide fusion (C-terminal peptide) (PSI (0-1 scale)); higher = more stable (slower turnover)
experimental_parameters: genetic background: wild type; temperature: 30 C
API note: the answer field is a bare number with no unit suffix.

Please review the entries below; each comes with its answer.
Asked: Data request, read-out protein stability index, for `LACTSPLLLRFR`
Given back: 0.673

Asked: Proceed to `LCCPVFFAFCFP`
Given back: 0.683

Asked: Proceed to `RARFMLGVLLST`
Given back: 0.451

More entries:
Asked: Data request, read-out protein stability index, for `RAPSTPSGRPSL`
Given back: 0.65

Asked: Proceed to `CRCTKVVVFGYP`
Given back: 0.667

Asked: Proceed to `GSNMTQAMTAGG`
Given back: 0.656

Asked: Proceed to `GCSLWCPDFCLC`
Given back: 0.665

Asked: Proceed to `SPPGTCPTIRPS`
Given back: 0.664

Asked: Proceed to `PPLPPSPSVSPR`
Given back: 0.746

Asked: Proceed to `PSLHPNHLAPPP`
Given back: 0.622

Asked: Proceed to `NLETVAENMFLA`
Given back: 0.71

Asked: Proceed to `DYNQWSAHHYGV`
Given back: 0.693

---

System: Saccharomyces cerevisiae;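 further: PSI is a weighted mean of sequencing reads over stability bins, variants kept only with over 10 reads, mCherry proximal and sfGFP distal, peptide attached via GGGS linker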
run_description: protein stability index of tFT-peptide fusion (C-terminal peptide) (PSI (0-1 scale)); higher = more stable (slower turnover)
experimental_parameters: genetic background: wild type; temperature: 30 C
observable: protein stability index
API note: the answer field is a bare number with no unit suffix.

Please review the entries below; each comes with its answer.
Asked: Data request, read-out protein stability index, for `SLLPHSPLLPPP`
Given back: 0.694

Asked: Proceed to `RGCGKGPLLSWF`
Given back: 0.717

Asked: Proceed to `SSRYVATANICR`
Given back: 0.69

Asked: Proceed to `PRPLPLPPLALP`
Given back: 0.696

Asked: Proceed to `IRGYSVKRIRED`
Given back: 0.683

Asked: Proceed to `SGNYRGGLTVFS`
Given back: 0.711

Asked: Proceed to `RRHRPKNEVPLC`
Given back: 0.705

Asked: Proceed to `PFAPFIHNFGCT`
Given back: 0.713

Asked: Proceed to `RFAGLRDVGCFL`
Given back: 0.695

Asked: Proceed to `FLPPPPVLPSLP`
Given back: 0.697

More entries:
Asked: Data request, read-out protein stability index, for `AVKRNDALGIQF`
Given back: 0.718

Asked: Proceed to `PPLPPPTSPPRP`
Given back: 0.69

Asked: Proceed to `LLQSPRLGQEWA`
Given back: 0.693

Asked: Proceed to `PPPPLSAPPFSS`
Given back: 0.697

Asked: Proceed to `VASLGFVGFCRF`
Given back: 0.713

Asked: Proceed to `CFKETLLKGSRQ`
Given back: 0.718

Asked: Proceed to `RAIGREGILHRA`
Given back: 0.693

Asked: Proceed to `DVDYGEIDYQIK`
Given back: 0.708

Asked: Proceed to `NVLSGIDKRLTI`
Given back: 0.71

Asked: Proceed to `LHRGCSGNVPAR`
Given back: 0.697

Asked: Proceed to `IATPQNPRRTKA`
Given back: 0.714

Asked: Proceed to `GGGLGRRLLGGR`
Given back: 0.69

Asked: Proceed to `SGFPSCFRPSFY`
Given back: 0.702
